assay: Pharmacokinetics of PEGylated protease inhibitor prodrugs in rats; type: in vivo, male Sprague-Dawley rats; settings: male, Sprague-Dawley, rat, oral, prodrug in plasma, read-out: t½(z) (converted)
readoutName: half-life (h)
A number alone suffices; assume h.

q: Could you share which half-life value was measured for "COCCOCCOCCOCCOCCOC(=O)N[C@H](C(=O)N[C@@H](Cc1ccccc1)[C@H](CN(Cc1ccc(-c2ccccn2)cc1)NC(=O)[C@@H](NC(=O)OC)C(C)(C)C)OC(=O)[C@@H](N)CC(C)C)C(C)(C)C" ?
a: 2.37

###

experiment: Pharmacokinetics of PEGylated protease inhibitor prodrugs in rats; format: in vivo, male Sprague-Dawley rats; parameters: concentration or dose not given beside the values; conditions: prodrug in plasma, mean ± SD
readoutName: AUCall (ng·h/mL)
A number alone suffices; assume ng·h/mL.

q: Could you share which AUCall value was measured for CCOC(C)OC(CN(Cc1ccc(-c2ccccn2)cc1)NC(=O)C(NC(=O)OC)C(C)(C)C)C(Cc1ccccc1)NC(=O)C(NC(=O)OCCOCCOCCOC)C(C)(C)C (mixture of isomers) ?
a: 3950

q: Could you share which AUCall value was measured for COCCOCCOCCOCCOCCOC(=O)N[C@H](C(=O)N[C@@H](Cc1ccccc1)[C@H](CN(Cc1ccc(-c2ccccn2)cc1)NC(=O)[C@@H](NC(=O)OC)C(C)(C)C)OC(=O)[C@H](Cc1ccccc1)NC(=O)[C@@H](N)Cc1ccccc1)C(C)(C)C.Cl [Phe-Phe-mPEG5-Atazanavir HCl, Phe-Phe-mPEG5-atazanavir hydrochloride] ?
a: 31.8

q: Could you share which AUCall value was measured for CCOC(=O)OC(CN(Cc1ccc(-c2ccccn2)cc1)NC(=O)C(NC(=O)OC)C(C)(C)C)C(Cc1ccccc1)NC(=O)C(NC(=O)OCCOCCOCCOC)C(C)(C)C (stereo not shown) [mPEG3-atazanavir ethyl carbonate, mPEG3-Atazanavir Ethyl Carbonate] ?
a: 4960

Kindly review the next molecule as well.
q: Could you share which AUCall value was measured for COCCOCCOCCOCCOCCOC(=O)NC(C(=O)NC(Cc1ccccc1)C(CN(Cc1ccc(-c2ccccn2)cc1)NC(=O)C(NC(=O)OC)C(C)(C)C)OC(=O)COCCOC(=O)C(N)Cc1ccccc1)C(C)(C)C.Cl (stereo not shown) [mPEG5-Atazanavir-CME-phenylalanine HCl] ?
a: 0.0554

###

experiment: Pharmacokinetics of PEGylated protease inhibitor prodrugs in rats; type: in vivo, male Sprague-Dawley rats; conditions: prodrug in plasma, 24 hr
Where a name gives a salt, the structure may show the parent alone.
readoutName: Cmin(24 hr)

q: Could you share which Cmin(24 hr) value was measured for CCOC(CC)OC(CN(Cc1ccc(-c2ccccn2)cc1)NC(=O)C(NC(=O)OC)C(C)(C)C)C(Cc1ccccc1)NC(=O)C(NC(=O)OCCOCCOCCOC)C(C)(C)C (mixture of isomers) ?
a: BLQ

q: Could you share which Cmin(24 hr) value was measured for COCCOCCOCCOCCOCCOC(=O)N[C@H](C(=O)N[C@@H](Cc1ccccc1)[C@H](CN(Cc1ccc(-c2ccccn2)cc1)NC(=O)[C@@H](NC(=O)OC)C(C)(C)C)OC(=O)[C@H](Cc1ccccc1)NC(=O)[C@@H](N)CC(C)C)C(C)(C)C.Cl [Leu-Phe-mPEG5-Atazanavir HCl, Leu-Phe-mPEG5-Atazanavir Hydrochloride] ?
a: 1.16 ± 2.31 ng/mL

q: Could you share which Cmin(24 hr) value was measured for COCCOCCOCCOCCOCCOC(=O)NC(C(=O)NC(Cc1ccccc1)C(CN(Cc1ccc(-c2ccccn2)cc1)NC(=O)C(NC(=O)OC)C(C)(C)C)OC(=O)COCCOC(=O)C(Cc1ccccc1)NC(=O)C(N)Cc1ccccc1)C(C)(C)C.Cl (stereo not drawn) [CME Phe-Phe-mPEG5-Atazanavir HCl, mPEG5-atazanavir-ethoxy-CME-Phe-Phe] ?
a: BLQ

q: Could you share which Cmin(24 hr) value was measured for CCOC(C)OC(CN(Cc1ccc(-c2ccccn2)cc1)NC(=O)C(NC(=O)OC)C(C)(C)C)C(Cc1ccccc1)NC(=O)C(NC(=O)OCCOCCOCCOCCOCCOCCOC)C(C)(C)C (mixture of isomers) ?
a: 0.354 ± 0.410 ng/mL

Next:
q: Could you share which Cmin(24 hr) value was measured for COCCOCCOCCOCCOCCOCCOC(=O)NC(C(=O)NC(Cc1ccccc1)C(CN(Cc1ccc(-c2ccccn2)cc1)NC(=O)C(NC(=O)OC)C(C)(C)C)OCOC)C(C)(C)C (centres unmarked) ?
a: 3.47 ± 2.81 ng/mL

q: Could you share which Cmin(24 hr) value was measured for CCOC(=O)O[C@@H](CN(Cc1ccc(-c2ccccn2)cc1)NC(=O)[C@@H](NC(=O)OC)C(C)(C)C)[C@H](Cc1ccccc1)NC(=O)[C@@H](NC(=O)OCCOCCOCCOCCOCCOC)C(C)(C)C.Cl [mPEG5-Atazanavir - Ethyl Carbonate HCl, mPEG5-Atazanavir Ethyl Carbonate] ?
a: 2.19 ± 0.700 ng/mL

q: Could you share which Cmin(24 hr) value was measured for COCCOCCOCCOC(=O)NC(C(=O)NC(Cc1ccccc1)C(CN(Cc1ccc(-c2ccccn2)cc1)NC(=O)C(NC(=O)OC)C(C)(C)C)OC(=O)CCCC(=O)OC1C(O)C(O)OC1C(O)CO)C(C)(C)C (centres unmarked) ?
a: 0.177 ± 0.353 ng/mL

q: Could you share which Cmin(24 hr) value was measured for "COCCOCCOCCOC(=O)N[C@H](C(=O)N[C@@H](Cc1ccccc1)[C@H](CN(Cc1ccc(-c2ccccn2)cc1)NC(=O)[C@@H](NC(=O)OC)C(C)(C)C)OCOC)C(C)(C)C" ?
a: 6.52 ± 3.57 ng/mL

q: Could you share which Cmin(24 hr) value was measured for COCCOCCOCCOCCOCCOC(=O)N[C@H](C(=O)N[C@@H](Cc1ccccc1)[C@H](CN(Cc1ccc(-c2ccccn2)cc1)NC(=O)[C@@H](NC(=O)OC)C(C)(C)C)OC(=O)[C@H](CC(C)C)NC(=O)[C@@H](N)Cc1ccccc1)C(C)(C)C [Phe-Leu-mPEG5-Atazanavir HCl, Phe-Leu-mPEG5-Atazanavir Hydrochloride] ?
a: BLQ

q: Could you share which Cmin(24 hr) value was measured for CCOC(=O)OC(CN(Cc1ccc(-c2ccccn2)cc1)NC(=O)C(NC(=O)OC)C(C)(C)C)C(Cc1ccccc1)NC(=O)C(NC(=O)OCCOCCOCCOC)C(C)(C)C (centres unmarked) [mPEG3-atazanavir ethyl carbonate, mPEG3-Atazanavir Ethyl Carbonate] ?
a: 2.42 ± 1.20 ng/mL

q: Could you share which Cmin(24 hr) value was measured for CCOC(C)OC(CN(Cc1ccc(-c2ccccn2)cc1)NC(=O)C(NC(=O)OC)C(C)(C)C)C(Cc1ccccc1)NC(=O)C(NC(=O)OCCOCCOCCOCCOCCOC)C(C)(C)C (mixture of isomers) ?
a: 0.208 ± 0.416 ng/mL

The reported numbers originate from patent US20120108501A1.
